Would you mind telling me the reported cytotoxicity at 70.5 h of each entry?
assay: Human HepG2 cell viability assay in 384 well format; type: toxicity, cell-based; parameters: dose 125 nL, time 70.5 hour; concentration not given beside the values; settings: HepG2 cells, read-out: Inhibition
Answer in %, number only, no unit symbol.

input: Give cytotoxicity at 70.5 h for COc1ccccc1-c1ncc(CN2C[C@H](O)[C@@H](N3CCCC3)C2)s1
output: -14.6

input: Please give measured cytotoxicity at 70.5 h of the following entry: CS(=O)(=O)N1C[C@H]2CCCN(Cc3cccs3)[C@H]2C1
output: 6.54

input: Identify measured cytotoxicity at 70.5 h associated with Cc1nc(N2CCN(C(=O)C3CC3)CC2)c2c(n1)c(C)nn2C
output: 0.516

input: Retrieve cytotoxicity at 70.5 h measured for O=C(c1cnc(-c2ccco2)s1)N1CCCC1Cn1cccn1 (stereo not given) and print it.
output: 1.15

input: Answer with the recorded cytotoxicity at 70.5 h for the compound listed here: CC(=O)N1CCC2(CC1)NC(=O)[C@H]1CN(Cc3cccnc3)C[C@H]12
output: 18.4
